system: T1, human amylin 3(a) receptor (human calcitonin receptor plus RAMP-3) (human, UniProt P30988 25-474; O60896 24-148, limits assumed)
T1 sequence (looked up) 1: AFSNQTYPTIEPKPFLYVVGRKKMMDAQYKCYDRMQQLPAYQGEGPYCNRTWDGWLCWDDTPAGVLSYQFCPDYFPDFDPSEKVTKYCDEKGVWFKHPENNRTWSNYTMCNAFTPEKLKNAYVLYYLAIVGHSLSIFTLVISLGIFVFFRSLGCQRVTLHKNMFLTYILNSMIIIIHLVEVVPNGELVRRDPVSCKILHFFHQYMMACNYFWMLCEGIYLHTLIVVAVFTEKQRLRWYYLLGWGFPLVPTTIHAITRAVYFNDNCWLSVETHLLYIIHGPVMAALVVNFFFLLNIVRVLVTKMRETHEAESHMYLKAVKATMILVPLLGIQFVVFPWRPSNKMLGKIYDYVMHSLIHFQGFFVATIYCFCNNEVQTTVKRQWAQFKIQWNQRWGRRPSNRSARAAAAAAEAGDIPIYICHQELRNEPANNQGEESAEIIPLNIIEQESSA
T1 sequence (looked up) 2: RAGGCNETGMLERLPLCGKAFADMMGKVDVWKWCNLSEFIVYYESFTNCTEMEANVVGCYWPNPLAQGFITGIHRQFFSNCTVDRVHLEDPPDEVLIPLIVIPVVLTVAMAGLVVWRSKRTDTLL
experimental-protocol: cell-based or functional assay
Numbered stars: 1 amine (or outer) side, 2 acyl side, 3 side chain; on linkers, the order of the positions; unused ones are H or OH. Bridge positions count the residues as written; N and C are the ends. Side chains are listed from the residue outwards. Ends that are not written are not given here. * marks the point of attachment. C20 diacid = O=C(O)CCCCCCCCCCCCCCCCCCC(=O)*; γGlu = O=C(O)[C@H](CCC(=O)[*:2])N[*:1]
readout-name: hAmylin-R funct. EC50 (pM)
The reply should be a number in pM, with the unit left off.

Study these solved cases before continuing.
INSERT INTO results (binder, unit, experimental_result) VALUES
  ('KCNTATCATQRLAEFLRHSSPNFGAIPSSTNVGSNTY (C20 diacid-gGlu on the alpha amino group of the N-terminal residue (position 1); disulfide bridge Cys2-Cys7; C-terminal amide, also called compound 9) [N^α1-[(4S)-4-carboxy-4-(19-carboxynonadecanoylamino)butanoyl]-[Glu14,Arg17,Pro21,Pro27]-h-amylin]', 'pM', 175),
  ('K([γGlu-γGlu-C20 diacid])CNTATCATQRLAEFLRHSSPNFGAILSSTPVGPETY-NH2 (disulfide 2-7 (inferred))', 'pM', 222),
  ('{C20 diacid-γGlu}-KCNTATCATQRLAEFLRHSSPNFGAILPSTNVGSETY-NH2 (disulfide 2-7, also called compound 33)', 'pM', 243);

Consider now this further binder.
Quick check: hAmylin-R funct. EC50 of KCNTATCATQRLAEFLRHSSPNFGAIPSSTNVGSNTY (C20 diacid-gGlu-2xOEG on the alpha amino group of the N-terminal residue (position 1); disulfide bridge Cys2-Cys7; C-terminal amide, also called compound 19) ?
307
